# Assay target: F1Fo-ATPase in bovine SMPs (Bos taurus)
# Measurement protocol: Bovine SMP ATP synthesis steady-state kinetic assay
# Assay type: biochemical
# Settings: read-out: Ki(ES); Bovine, ATP synthesis, 3D fit eq 6, n(E)=2, n(ES)=1; ±SE
Endpoint: Ki (nM)
Kindly provide the numeric value in nM only, without the unit symbol.

Please report the recorded Ki for CC[C@H]1O[C@]2(C)[C@H](OC(C)=O)[C@@]1(C)O[C@@H](/C=C/C=C/C=C/c1oc(=O)cc(OC)c1C)[C@@H]2O .
25

###

# Assay target: E. coli membrane F1Fo-ATPase (Escherichia coli)
# Measurement protocol: E. coli everted membrane ATP hydrolysis steady-state kinetic assay
# Format: biochemical
# Settings: read-out: Ki(E), E. coli, 3D fit eq 5, n(E)=2, n(ES)=1, ±SE
Endpoint: Ki (nM)
Kindly provide the numeric value in nM only, without the unit symbol.

Please report the recorded Ki for CC[C@H]1O[C@]2(C)[C@H](OC(C)=O)[C@@]1(C)O[C@@H](/C=C/C=C/C=C/c1oc(=O)cc(OC)c1C)[C@@H]2O [aurovertin, Aurovertin B] .
430

###

# Assay target: F1Fo-ATPase in bovine SMPs (Bos taurus, UniProt P00829)
# Measurement protocol: Bovine SMP ATP synthesis steady-state kinetic assay
# Assay type: biochemical
# Settings: read-out: Ki(ES); Bovine, ATP synthesis, 3D fit eq 6, n(E)=1, n(ES)=1; ±SE
Endpoint: Ki

Please report the recorded Ki for CC[C@H]1O[C@]2(C)[C@H](OC(C)=O)[C@@]1(C)O[C@@H](/C=C/C=C/C=C/c1oc(=O)cc(OC)c1C)[C@@H]2O .
22 nM

###

# Assay target: F1Fo-ATPase in bovine SMPs (Bos taurus, UniProt P00829)
# Measurement protocol: Bovine SMP ATP hydrolysis steady-state kinetic assay
# Assay type: biochemical
# Settings: read-out: Ki(ES); Bovine, ATP hydrolysis, 3D fit eq 5, n(E)=2, n(ES)=1; ±SE
Endpoint: Ki (nM)
Kindly provide the numeric value in nM only, without the unit symbol.

Please report the recorded Ki for CC[C@H]1O[C@]2(C)[C@H](OC(C)=O)[C@@]1(C)O[C@@H](/C=C/C=C/C=C/c1oc(=O)cc(OC)c1C)[C@@H]2O .
120

###

# Assay target: F1Fo-ATPase in bovine SMPs (Bos taurus, UniProt P00829)
# Measurement protocol: Bovine SMP ATP hydrolysis steady-state kinetic assay
# Type: biochemical
# Settings: read-out: Ki(E); Bovine, ATP hydrolysis, 3D fit eq 5, n(E)=1, n(ES)=1; ±SE
Endpoint: Ki (nM)
Kindly provide the numeric value in nM only, without the unit symbol.

Please report the recorded Ki for CC[C@H]1O[C@]2(C)[C@H](OC(C)=O)[C@@]1(C)O[C@@H](/C=C/C=C/C=C/c1oc(=O)cc(OC)c1C)[C@@H]2O .
820

###

# Assay target: F1Fo-ATPase in bovine SMPs (Bos taurus, UniProt P00829)
# Measurement protocol: Bovine SMP ATP synthesis steady-state kinetic assay
# Format: biochemical
# Settings: read-out: Ki(E); Bovine, ATP synthesis, 3D fit eq 6, n(E)=1, n(ES)=1; ±SE
Endpoint: pKi
Please report pKi as the negative decimal logarithm of the molar concentration, giving only the number.

Please report the recorded pKi for CC[C@H]1O[C@]2(C)[C@H](OC(C)=O)[C@@]1(C)O[C@@H](/C=C/C=C/C=C/c1oc(=O)cc(OC)c1C)[C@@H]2O .
7.89
